Test system: ragweed (common ragweed, Ambrosia artemisiifolia)
Experiment: Test A preemergence, ragweed
Type: in vivo
Details: Preemergence, 500 g ai/ha; 0 to 100 scale (0 no effect, 100 complete control)
EXPERIMENTAL_READOUT: Plant response rating, Ragweed
Field format: numeric only.

Worked set:
* Cc1cc(C)c(-c2ccnn(C)c2=O)cc1NS(=O)(=O)C(F)(F)F | 90
* C#CCN(C)C(=O)c1cc(N(S(=O)(=O)C(F)(F)F)S(=O)(=O)C(F)(F)F)c(C)c(F)c1C | 90
* C#CCN(CC#C)C(=O)c1cc(N(S(=O)(=O)C(F)(F)F)S(=O)(=O)C(F)(F)F)c(C)cc1C | 90

Return the recorded Plant response rating, Ragweed value; entry: `CCn1cc(-c2cc(NS(=O)(=O)C(F)(F)F)c(C)cc2C)c(=O)n(CC)c1=O` 10

Provide one value: measured Plant response rating, Ragweed of `Cc1c(NS(=O)(=O)C(F)(F)F)cc(C(=O)N2CCC(F)CC2)c(C)c1F` 90

Assign Plant response rating, Ragweed to the following record: `Cc1cc(Cl)c(NS(=O)(=O)C(F)(F)F)cc1C(=O)N1CCC(C#N)CC1` 80
